# IC90 per entry
Tested on: A549 (human lung cancer)
Experiment: Solid tumor cell growth inhibition, MTT, 72 h (Example 7)
Format: cell-based
Details: Homo sapiens; 72 h, MTT, A549
Respond numerically; units are µg/mL and should not be typed.

# example entries with known answers
                                   compound              assay_system  measured_metric  measure_unit  numeric_value
0  COc1ccc2cc1Oc1ccc(cc1)C[C@H]1c3cc(c(OC)cc3CCN1C)Oc1c(OC)c(OC)c(CN)c3c1[C@H](C2)N(C)CC3  A549 (human lung cancer)             IC90         µg/mL            5.1
1  COc1ccc2cc1Oc1ccc(cc1)C[C@H]1c3cc(c(OC)cc3CCN1C)Oc1c(OC)c(OC)c(CN3CCCC(O)C3)c3c1[C@H](C2)N(C)CC3 (stereo partly drawn)  A549 (human lung cancer)             IC90         µg/mL             16
2  COc1ccc2cc1Oc1ccc(cc1)C[C@H]1c3cc(c(OC)cc3CCN1C)Oc1c(OC)c(OC)c(COC(=O)c3ccc(N(C)C)cc3)c3c1[C@H](C2)N(C)CC3  A549 (human lung cancer)             IC90         µg/mL           14.2

Then there is this compound:
Prompt: Look up IC90 for this compound: CNCc1c2c3c(c(OC)c1OC)Oc1cc4c(cc1OC)CCN(C)[C@H]4Cc1ccc(cc1)Oc1cc(ccc1OC)C[C@@H]3N(C)CC2
Response: 4.9

###

Tested on: MGC 803 (human gastric cancer cell)
Test: Solid tumor cell growth inhibition, MTT, 72 h (Example 7)
Assay type: cell-based
Conditions: Homo sapiens
Param label: returns true (1) when IC50 < 1 µg/mL, returns false (0) otherwise, including exact equality.

In [3]: df
Out[3]:
                                   molecule      label
0  COc1ccc2cc1Oc1ccc(cc1)C[C@H]1c3cc(c(OC)cc3CCN1C)Oc1c(OC)c(OC)c(CN3CCC(O)C3)c3c1[C@H](C2)N(C)CC3 (stereo partly drawn)  false (0)
1  COc1ccc2cc1Oc1ccc(cc1)C[C@H]1c3cc(c(OC)cc3CCN1C)Oc1c(OC)c(OC)c(CN3CCC(N(C)C)CC3)c3c1[C@H](C2)N(C)CC3   true (1)

Prompt: Given COc1ccc2cc1Oc1ccc(cc1)C[C@H]1c3cc(c(OC)cc3CCN1C)Oc1c(OC)c(OC)c(CNCc3ccccn3)c3c1[C@H](C2)N(C)CC3 , is recorded IC50 strictly lower than 1 µg/mL?
Response: false (0)

Prompt: Another molecule: COc1ccc2cc1Oc1ccc(cc1)C[C@H]1c3cc(c(OC)cc3CCN1C)Oc1c(OC)c(OC)c(Cn3cccn3)c3c1[C@H](C2)N(C)CC3
Response: false (0)

Prompt: Another molecule: COc1ccc2cc1Oc1ccc(cc1)C[C@H]1c3cc(c(OC)cc3CCN1C)Oc1c(OC)c(OC)c(COCCOc3ccccc3)c3c1[C@H](C2)N(C)CC3
Response: false (0)

Prompt: Another molecule: COc1ccc2cc1Oc1ccc(cc1)C[C@H]1c3cc(c(OC)cc3CCN1C)Oc1c(OC)c(OC)c(CN3CCCC(O)C3)c3c1[C@H](C2)N(C)CC3 (stereo partly drawn)
Response: false (0)

Prompt: Another molecule: COCCCOCc1c2c3c(c(OC)c1OC)Oc1cc4c(cc1OC)CCN(C)[C@H]4Cc1ccc(cc1)Oc1cc(ccc1OC)C[C@@H]3N(C)CC2
Response: false (0)

Prompt: Another molecule: COc1ccc2cc1Oc1ccc(cc1)C[C@H]1c3cc(c(OC)cc3CCN1C)Oc1c(OC)c(OC)c(CN3CCCN(C)CC3)c3c1[C@H](C2)N(C)CC3
Response: false (0)

Prompt: Another molecule: COc1ccc2cc1Oc1ccc(cc1)C[C@H]1c3cc(c(OC)cc3CCN1C)Oc1c(OC)c(OC)c(CNCc3ccc(C)o3)c3c1[C@H](C2)N(C)CC3
Response: false (0)
